Molecular target: T1, human ribonuclease inhibitor (human, UniProt P13489 2-461)
T1 construct: also called hRI; hR1
T1 sequence: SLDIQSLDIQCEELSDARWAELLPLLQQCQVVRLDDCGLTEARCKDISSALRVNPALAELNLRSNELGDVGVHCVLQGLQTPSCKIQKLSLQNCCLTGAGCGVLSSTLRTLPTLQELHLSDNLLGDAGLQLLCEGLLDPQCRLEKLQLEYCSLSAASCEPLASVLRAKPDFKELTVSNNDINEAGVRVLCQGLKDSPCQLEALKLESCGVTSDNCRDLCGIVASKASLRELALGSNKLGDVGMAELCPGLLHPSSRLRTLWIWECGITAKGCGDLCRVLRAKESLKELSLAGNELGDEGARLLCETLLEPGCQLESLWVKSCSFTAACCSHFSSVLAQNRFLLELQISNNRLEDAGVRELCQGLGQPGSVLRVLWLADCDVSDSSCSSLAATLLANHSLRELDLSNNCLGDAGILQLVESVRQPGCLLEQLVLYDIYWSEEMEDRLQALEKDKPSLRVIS
Experiment: ΔΔG of R39D/N67D/N88A/G89D/R91D RNase 1 minus ΔΔG of this variant
Excerpt: Values for Kd were obtained by nonlinear least-squares analysis of the binding isotherm using the program […] 5.5 (Red Rock Software, Salt Lake City, Utah).
I'd be grateful if you could share measured ΔΔΔG for these entries.
Give bare numbers, in kcal/mol.

1) R39D/N67D/N88A/R91D RNase 1 (enzyme) KESRAKKFQRQHMDSDSSPSSSSTYCNQMMRRRNMTQGDCKPVNTFVHEPLVDVQNVCFQEKVTCKDGQGNCYKSNSSMHITDCRLTAGSDYPNCAYRTSPKERHIIVACEGSPYVPVHFDASVEDST :: 1.1

In the following, a different binder is considered.
Query: If you can, please state the reported ΔΔΔG value of R39D/N88A/G89D/R91D RNase 1 (enzyme) KESRAKKFQRQHMDSDSSPSSSSTYCNQMMRRRNMTQGDCKPVNTFVHEPLVDVQNVCFQEKVTCKNGQGNCYKSNSSMHITDCRLTADSDYPNCAYRTSPKERHIIVACEGSPYVPVHFDASVEDST .
Reply: 1.9
